The entries below are paired with their reported AUC(0-inf).
Experimental details: Pharmacokinetic test in rats after intravenous and intragastric administration (plasma, LC-MS/MS)
Assay type: in vivo
Recorded conditions: male, SD, po, rat, intragastric administration (group 1), nominal 2 mg/kg (actual dose in c2), read-out: Curve area (o-inf) AUC0-inf

- Chemical smiles: "COc1ccc(F)c(CNC(=O)c2cn(Cc3ccc(Cn4cc(F)ccc4=O)c(F)c3)nc2C2COC2)c1F"
  AUC(0-inf): "0.591 µM·h"
- Chemical smiles: "COc1ccc(Cl)c(CNC(=O)c2cn(Cc3ccc(Cn4ccccc4=O)cc3)nc2C2COC2)c1F"
  AUC(0-inf): "1.8 µM·h"
- Chemical smiles: "COc1ccnc(CNC(=O)c2cn(Cc3ccc(Cn4cc(F)ccc4=O)cc3)nc2C2COC2)c1F"
  AUC(0-inf): "0.246 µM·h"
- Chemical smiles: "COc1ccc(Cl)c(CNC(=O)c2cn(Cc3ccc(Cn4cc(F)ccc4=O)cc3)nc2C2COC2)c1F"
  AUC(0-inf): "2.12 µM·h"

The values you see were collected from patent US11814371B2.
